- system under test: T1, CysR∼CTLD3-Fc of DEC205 (human, UniProt O60449 28-627)
- T1 chain: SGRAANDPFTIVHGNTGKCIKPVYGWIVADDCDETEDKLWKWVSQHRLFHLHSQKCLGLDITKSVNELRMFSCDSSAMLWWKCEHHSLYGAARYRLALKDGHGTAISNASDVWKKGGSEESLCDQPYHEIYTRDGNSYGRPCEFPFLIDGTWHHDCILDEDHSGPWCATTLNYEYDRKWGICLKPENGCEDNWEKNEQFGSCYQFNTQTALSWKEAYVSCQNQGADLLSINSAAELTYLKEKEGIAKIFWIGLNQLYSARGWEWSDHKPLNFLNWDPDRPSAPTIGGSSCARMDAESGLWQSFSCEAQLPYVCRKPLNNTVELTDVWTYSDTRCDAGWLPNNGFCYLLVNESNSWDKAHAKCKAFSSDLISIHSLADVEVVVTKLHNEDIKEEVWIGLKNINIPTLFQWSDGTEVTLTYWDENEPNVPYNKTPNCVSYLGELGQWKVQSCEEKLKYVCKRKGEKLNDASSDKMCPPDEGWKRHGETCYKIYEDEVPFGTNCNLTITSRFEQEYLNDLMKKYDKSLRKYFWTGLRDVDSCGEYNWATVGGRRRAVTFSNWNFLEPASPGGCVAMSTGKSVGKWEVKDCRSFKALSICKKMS
- procedure details: ELISA; pH 6.0
Reported pKd values follow for various binders
// pKd: -log10(molar conc.)

binder	data value
GSGGGSYGSG (Expressed and purified for ELISA and flow cytometry; source: E. coli BL21(DE3), pET28a, purified (Ni-NTA)) [K1-T3 (G532-G541 and G560-G569: GSGGGSYGSG), SUMO fusion]	7.54

Please examine the following record next.
Query :: // pKd lookup, key: ISGGGSRGGG (keratin 1 (K1), human, tail, residues I512-G521; Expressed and purified for ELISA and flow cytometry; source: E. coli BL21(DE3), pET28a, purified (Ni-NTA)) [K1-T2 (I512-G521: ISGGGSRGGG), SUMO fusion]
Result :: 7.54
